assay: Tmax in Sprague-Dawley rat at 5 mg/kg, iv incubated for 5 to 24 hrs by LC-MS/MS analysis; assay type: ADME, organism-based; conditions: in vivo, time 5-24 hrs
assay-metric: Tmax (min)
Lab book: enter the figure in min, no units written.

Input: Which Tmax value is on record for `C[C@H]1CC[C@@H](c2nc3cccc(Cl)c3c(=O)n2-c2cccc(F)c2)N1c1ncnc2[nH]cnc12` ?
Output: 4.8

* * *

assay: Volume of distribution at steady state in Sprague-Dawley rat at 5 mg/kg, iv incubated for 5 to 24 hrs by LC-MS/MS analysis; assay type: ADME, organism-based; details: in vivo, time 5-24 hrs, read-out: Vdss
assay-metric: Vd

Input: Which Vd value is on record for `C[C@H]1CC[C@@H](c2nc3cccc(Cl)c3c(=O)n2-c2cccc(F)c2)N1c1ncnc2[nH]cnc12` ?
Output: 7.16 L/kg

Where do these numbers come from? They come from ChEMBL document CHEMBL5149992.
